test system: RAW-Dual (murine macrophage reporter line); assay: viability score (confluency relative to resting cells, overnight) (fraction); higher = more viable, active = viable (0.7 or more); settings: modulator concentration 10 µM
Value type: viability score
Respond with the number and no other words.

Example entries and their recorded answers appear below.
1) CCS(=O)(=O)O.COC(=O)c1ccc2c(c1)NC(=O)/C2=C(\Nc1ccc(N(C)C(=O)CN2CCN(C)CC2)cc1)c1ccccc1 | 0.839
2) O=C(c1ccc(OC(F)(F)F)cc1)N1CCC(Oc2cnccn2)CC1 | 0.996
3) CN1CCN(C2=Nc3cc(Cl)ccc3Nc3ccccc32)CC1 | 0.981
4) O=C(CN1CCN(c2ccccc2F)C1=O)N1CCCC(Oc2cnccn2)C1 (stereo not given) | 0.965
5) COc1cc(C=Nc2ccc(-c3ccc(N=Cc4cc(OC)c(OC)cc4[N+](=O)[O-])cc3)cc2)c([N+](=O)[O-])cc1OC | 1.01
6) CNCC[C@@H](Oc1ccccc1C)c1ccccc1.Cl | 0.958

Kindly note: RAW-Dual (murine macrophage reporter line), CCOC(N)=O , viability score value reported: 1.01

Tested on RAW-Dual (murine macrophage reporter line): Cc1cc(Cl)ccc1OCC(O)CN1CC(C)OC(C)C1.Cl (stereo not given) . Observed viability score: 0.977

Tested system RAW-Dual (murine macrophage reporter line); viability score recorded for CCOC(=O)C1=C(C)NC(C)=C(C(=O)OCC)C1c1ccccc1/C=C/C(=O)OC(C)(C)C was 0.965
